// provenance: patent US20110039779A1

Measured IC50 in SW480 (M) in presence of IGF-1 values are reported for all entries that follow.
target: IGF-1R on SW480 cells (UniProt P08069 31-1367, limits assumed); assay: cell-based or functional assay
Sequence (P08069 31-1367 limits assumed): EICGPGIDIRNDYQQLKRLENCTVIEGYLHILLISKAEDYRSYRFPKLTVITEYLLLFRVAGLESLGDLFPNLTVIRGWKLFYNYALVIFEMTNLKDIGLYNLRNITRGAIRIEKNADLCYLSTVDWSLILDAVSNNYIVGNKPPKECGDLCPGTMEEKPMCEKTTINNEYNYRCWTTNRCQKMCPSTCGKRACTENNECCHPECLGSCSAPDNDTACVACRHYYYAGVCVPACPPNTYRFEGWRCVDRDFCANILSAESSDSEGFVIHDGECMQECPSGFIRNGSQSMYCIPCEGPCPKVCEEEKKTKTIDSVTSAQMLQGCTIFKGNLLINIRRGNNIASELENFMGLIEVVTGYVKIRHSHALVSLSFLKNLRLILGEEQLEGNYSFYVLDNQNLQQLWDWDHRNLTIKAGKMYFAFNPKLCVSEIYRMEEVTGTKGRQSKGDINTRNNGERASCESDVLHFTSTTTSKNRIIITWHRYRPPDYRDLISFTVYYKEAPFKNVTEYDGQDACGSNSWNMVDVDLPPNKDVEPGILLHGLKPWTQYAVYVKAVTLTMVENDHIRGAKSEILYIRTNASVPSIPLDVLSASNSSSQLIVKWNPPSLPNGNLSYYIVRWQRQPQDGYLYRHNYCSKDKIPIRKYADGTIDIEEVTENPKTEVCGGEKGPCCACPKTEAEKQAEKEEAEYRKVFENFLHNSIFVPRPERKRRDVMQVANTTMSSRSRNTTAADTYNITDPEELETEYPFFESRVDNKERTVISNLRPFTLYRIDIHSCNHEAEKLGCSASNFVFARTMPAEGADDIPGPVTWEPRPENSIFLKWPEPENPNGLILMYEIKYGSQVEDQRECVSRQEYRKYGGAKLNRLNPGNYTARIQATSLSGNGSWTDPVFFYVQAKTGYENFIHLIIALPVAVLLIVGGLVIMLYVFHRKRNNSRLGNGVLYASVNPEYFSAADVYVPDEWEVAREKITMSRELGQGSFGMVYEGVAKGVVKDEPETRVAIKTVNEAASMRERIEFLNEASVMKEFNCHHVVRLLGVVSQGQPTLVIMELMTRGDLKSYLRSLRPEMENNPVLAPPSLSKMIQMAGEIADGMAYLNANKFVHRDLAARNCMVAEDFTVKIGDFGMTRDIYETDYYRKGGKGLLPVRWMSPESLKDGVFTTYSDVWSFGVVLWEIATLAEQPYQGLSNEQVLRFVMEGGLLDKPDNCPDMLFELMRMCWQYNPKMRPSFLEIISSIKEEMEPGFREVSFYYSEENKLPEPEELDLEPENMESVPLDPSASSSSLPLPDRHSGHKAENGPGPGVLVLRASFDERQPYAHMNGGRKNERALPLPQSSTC

Consider the reported IC50 in SW480 (M) in presence of IGF-1 for these binders:
>>> assay_value("RQWDCRGRPCGDAESFYEWFDQQRS [F264]")
"> 1e-05 M"
>>> assay_value("VQDDCRGRPCGDADSFYEWFDQQAS [F263]")
"> 1e-06 M"

Data request: Given the binder ELQGFCELLATVTGVTGLGCLDYQPIE [F202] , what is its reported IC50 in SW480 (M) in presence of IGF-1?
Data returned: > 1e-05 M
